Test system: MOLT-4
Assay: Growth inhibition of human MOLT4 cells after 48 hrs by SRB assay
Type: functional
Settings: MOLT-4, 48 h
Assign labels as follows, please: TRUE for GI50 below 2 µM; FALSE for GI50 equal to or exceeding 2 µM.

{"compound": "NC(=O)c1cc(Cl)ccc1NC(=O)/C=C/c1ccccc1", "measured target": "MOLT-4", "label class": "FALSE"}
{"compound": "Cc1ccc(NC(=O)/C=C/c2ccccc2)c(C(N)=O)c1", "measured target": "MOLT-4", "label class": "FALSE"}
{"compound": "NC(=O)c1cc(I)ccc1NC(=O)/C=C/c1ccccc1Cl", "measured target": "MOLT-4", "label class": "TRUE"}
{"compound": "NC(=O)c1cc(I)ccc1NC(=O)/C=C/c1ccccc1", "measured target": "MOLT-4", "label class": "TRUE"}
{"compound": "NC(=O)c1cc(Br)ccc1NC(=O)/C=C/c1ccccc1", "measured target": "MOLT-4", "label class": "TRUE"}

====

Test system: HCT-116
Assay: Growth inhibition of human HCT116 cells after 48 hrs by SRB assay
Assay type: functional
Settings: HCT-116, 48 h
Below is a list of entries, each paired with its recorded GI50 value.
observable: GI50 (nM)

{"compound": "NC(=O)c1cc(I)ccc1NC(=O)/C=C/c1ccccc1Cl", "output unit": "nM", "numeric result": 509}
{"compound": "NC(=O)c1cc(Br)ccc1NC(=O)/C=C/c1ccccc1", "output unit": "nM", "numeric result": 663}
{"compound": "NC(=O)c1cc(Cl)ccc1NC(=O)/C=C/c1ccccc1", "output unit": "nM", "numeric result": 1980}
{"compound": "Cc1ccc(NC(=O)/C=C/c2ccccc2)c(C(N)=O)c1", "output unit": "nM", "numeric result": 3200}
{"compound": "NC(=O)c1cc(I)ccc1NC(=O)/C=C/c1ccccc1", "output unit": "nM", "numeric result": 430}

====

Test system: IGROV-1
Assay: Growth inhibition of human IGROV1 cells after 48 hrs by SRB assay
Type: functional
Settings: IGROV-1, 48 h
Below is a list of entries, each paired with its recorded GI50 value.

{"compound": "NC(=O)c1cc(I)ccc1NC(=O)/C=C/c1ccccc1Cl", "output unit": "nM", "GI50": 352}
{"compound": "NC(=O)c1cc(I)ccc1NC(=O)/C=C/c1ccccc1", "output unit": "nM", "GI50": 917}
{"compound": "NC(=O)c1cc(Cl)ccc1NC(=O)/C=C/c1ccccc1", "output unit": "nM", "GI50": 3290}
{"compound": "Cc1ccc(NC(=O)/C=C/c2ccccc2)c(C(N)=O)c1", "output unit": "nM", "GI50": 4370}

====

Below is a list of entries, each paired with its recorded GI50 value.
Tested on: MDA-MB-468
Assay: Growth inhibition of human MDA-MB-468 cells after 48 hrs by SRB assay
Type: functional
Details: MDA-MB-468, 48 h

{"compound": "Cc1ccc(NC(=O)/C=C/c2ccccc2)c(C(N)=O)c1", "GI50, nM": 3120}
{"compound": "NC(=O)c1cc(I)ccc1NC(=O)/C=C/c1ccccc1Cl", "GI50, nM": 377}
{"compound": "NC(=O)c1cc(Cl)ccc1NC(=O)/C=C/c1ccccc1", "GI50, nM": 1170}
{"compound": "NC(=O)c1cc(Br)ccc1NC(=O)/C=C/c1ccccc1", "GI50, nM": 279}

====

Below is a list of entries, each paired with its recorded GI50 value.
Tested on: HCT-15
Test: Growth inhibition of human HCT15 cells after 48 hrs by SRB assay
Type: functional
Conditions: HCT-15, 48 h
observable: GI50 (µM)

{"compound": "NC(=O)c1cc(I)ccc1NC(=O)/C=C/c1ccccc1Cl", "measured target": "HCT-15", "observable": "GI50", "output unit": "µM", "numeric result": 0.987}
{"compound": "NC(=O)c1cc(Cl)ccc1NC(=O)/C=C/c1ccccc1", "measured target": "HCT-15", "observable": "GI50", "output unit": "µM", "numeric result": 2.13}
{"compound": "Cc1ccc(NC(=O)/C=C/c2ccccc2)c(C(N)=O)c1", "measured target": "HCT-15", "observable": "GI50", "output unit": "µM", "numeric result": 3.77}
{"compound": "NC(=O)c1cc(Br)ccc1NC(=O)/C=C/c1ccccc1", "measured target": "HCT-15", "observable": "GI50", "output unit": "µM", "numeric result": 1.04}
{"compound": "NC(=O)c1cc(I)ccc1NC(=O)/C=C/c1ccccc1", "measured target": "HCT-15", "observable": "GI50", "output unit": "µM", "numeric result": 0.586}

====

Test system: A549
Test: Growth inhibition of human A549 cells after 48 hrs by SRB assay
Assay type: functional
Conditions: A549, 48 h
Assign labels as follows, please: MET for GI50 below 3000 nM; NOT MET for GI50 equal to or exceeding 3000 nM.

{"compound": "NC(=O)c1cc(Br)ccc1NC(=O)/C=C/c1ccccc1", "label class": "MET"}
{"compound": "NC(=O)c1cc(I)ccc1NC(=O)/C=C/c1ccccc1", "label class": "MET"}
{"compound": "Cc1ccc(NC(=O)/C=C/c2ccccc2)c(C(N)=O)c1", "label class": "NOT MET"}
{"compound": "NC(=O)c1cc(I)ccc1NC(=O)/C=C/c1ccccc1Cl", "label class": "MET"}
{"compound": "NC(=O)c1cc(Cl)ccc1NC(=O)/C=C/c1ccccc1", "label class": "NOT MET"}

====

Below is a list of entries, each paired with its recorded GI50 value.
System: NCI-H23
Assay: Growth inhibition of human NCI-H23 cells after 48 hrs by SRB assay
Type: functional
Details: NCI-H23, 48 h

{"compound": "Cc1ccc(NC(=O)/C=C/c2ccccc2)c(C(N)=O)c1", "output unit": "nM", "GI50": 3380}
{"compound": "NC(=O)c1cc(Cl)ccc1NC(=O)/C=C/c1ccccc1", "output unit": "nM", "GI50": 3370}
{"compound": "NC(=O)c1cc(Br)ccc1NC(=O)/C=C/c1ccccc1", "output unit": "nM", "GI50": 1090}
{"compound": "NC(=O)c1cc(I)ccc1NC(=O)/C=C/c1ccccc1", "output unit": "nM", "GI50": 840}
{"compound": "NC(=O)c1cc(I)ccc1NC(=O)/C=C/c1ccccc1Cl", "output unit": "nM", "GI50": 1390}

====

System: SN12C
Test: Growth inhibition of human SN12C cells after 48 hrs by SRB assay
Format: functional
Below is a list of entries, each paired with its recorded GI50 value.

{"compound": "NC(=O)c1cc(I)ccc1NC(=O)/C=C/c1ccccc1", "measured target": "SN12C", "GI50 [nM]": 635}
{"compound": "Cc1ccc(NC(=O)/C=C/c2ccccc2)c(C(N)=O)c1", "measured target": "SN12C", "GI50 [nM]": 9630}
{"compound": "NC(=O)c1cc(Cl)ccc1NC(=O)/C=C/c1ccccc1", "measured target": "SN12C", "GI50 [nM]": 3960}
{"compound": "NC(=O)c1cc(Br)ccc1NC(=O)/C=C/c1ccccc1", "measured target": "SN12C", "GI50 [nM]": 2960}
{"compound": "NC(=O)c1cc(I)ccc1NC(=O)/C=C/c1ccccc1Cl", "measured target": "SN12C", "GI50 [nM]": 1550}

====

Test system: CAKI-1
Assay: Growth inhibition of human Caki1 cells after 48 hrs by SRB assay
Type: functional
Conditions: CAKI-1, 48 h
Assign labels as follows, please: Met for GI50 below 600 nM; Not met for GI50 equal to or exceeding 600 nM.

{"compound": "Cc1ccc(NC(=O)/C=C/c2ccccc2)c(C(N)=O)c1", "label class": "Not met"}
{"compound": "NC(=O)c1cc(I)ccc1NC(=O)/C=C/c1ccccc1", "label class": "Not met"}
{"compound": "NC(=O)c1cc(I)ccc1NC(=O)/C=C/c1ccccc1Cl", "label class": "Not met"}
{"compound": "NC(=O)c1cc(Br)ccc1NC(=O)/C=C/c1ccccc1", "label class": "Not met"}
{"compound": "NC(=O)c1cc(Cl)ccc1NC(=O)/C=C/c1ccccc1", "label class": "Met"}

====

Below is a list of entries, each paired with its recorded GI50 value.
Test system: 786-0
Experiment: Growth inhibition of human 786-0 cells after 48 hrs by SRB assay
Assay type: functional
Settings: 786-0, 48 h

{"compound": "NC(=O)c1cc(Br)ccc1NC(=O)/C=C/c1ccccc1", "GI50, nM": 1760}
{"compound": "Cc1ccc(NC(=O)/C=C/c2ccccc2)c(C(N)=O)c1", "GI50, nM": 4000}
{"compound": "NC(=O)c1cc(I)ccc1NC(=O)/C=C/c1ccccc1Cl", "GI50, nM": 937}
{"compound": "NC(=O)c1cc(Cl)ccc1NC(=O)/C=C/c1ccccc1", "GI50, nM": 2320}
{"compound": "NC(=O)c1cc(I)ccc1NC(=O)/C=C/c1ccccc1", "GI50, nM": 1430}
